Measured On: GRK2 (Homo sapiens, UniProt P25098)
Construct: purchased SignalChem A14-10G
Sequence (P25098 whole entry): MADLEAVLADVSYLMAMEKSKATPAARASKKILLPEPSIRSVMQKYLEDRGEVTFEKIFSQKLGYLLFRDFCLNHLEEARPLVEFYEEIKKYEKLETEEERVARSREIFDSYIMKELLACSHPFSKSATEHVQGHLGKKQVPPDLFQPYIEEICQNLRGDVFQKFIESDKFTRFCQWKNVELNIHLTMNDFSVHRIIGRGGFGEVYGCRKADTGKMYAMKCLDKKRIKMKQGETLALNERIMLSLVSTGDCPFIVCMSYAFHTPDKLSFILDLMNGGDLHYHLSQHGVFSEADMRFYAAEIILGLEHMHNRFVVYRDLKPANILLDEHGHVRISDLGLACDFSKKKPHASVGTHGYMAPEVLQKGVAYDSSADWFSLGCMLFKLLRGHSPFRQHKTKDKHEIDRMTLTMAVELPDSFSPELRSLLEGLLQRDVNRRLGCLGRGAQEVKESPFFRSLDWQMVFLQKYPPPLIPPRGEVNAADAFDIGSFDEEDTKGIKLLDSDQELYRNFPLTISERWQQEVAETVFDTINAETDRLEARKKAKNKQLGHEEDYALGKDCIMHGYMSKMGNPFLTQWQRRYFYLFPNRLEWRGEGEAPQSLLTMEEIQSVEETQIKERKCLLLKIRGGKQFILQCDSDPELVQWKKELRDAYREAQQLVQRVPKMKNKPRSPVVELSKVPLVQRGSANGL
Measurement Protocol: ADPGlo GRK2 Inhibition Assay (Example 8)
Format: biochemical
Conditions Used: 7.5 nM GRK2, 10 μM ATP, ADP-Glo; read-out: GRK2 IC50 (nM) (Example 8)
Classes (IC50): low (below 7 nM), moderate (7 nM to below 10 nM), high (10 nM or more)

State the band of Cn1c(CNc2cccc(C(=O)NCc3ccncc3Cl)c2)nnc1-c1ccncn1 [compound 13]
moderate

State the band of CCC[C@H](NC(=O)c1cccc(NCc2nnc(-c3ccncn3)n2C)c1)c1ccccn1 [compound 21]
high

State the band of Cc1cc2c(cc1CNC(=O)c1cccc(NCc3nnc(-c4ccncn4)n3C)c1)OCCO2 [compound 36]
low

State the band of Cn1c(CNc2cccc(C(=O)NC3CCOc4cccnc43)c2)nnc1-c1ccncn1 (stereo not shown) [compound 60]
moderate

State the band of COc1cccc(C(CO)NC(=O)c2cccc(NCc3nnc(-c4ccncn4)n3C)c2)c1 (stereo not shown) [compound 49]
low

Reference source for all entries: patent US20230009608A1
